// data source = patent US6355799B1

Tested on: field corn (Zea mays L., var. Dekalb 535, CORN)
Assay: Post-emerge test, crop safety
Format: in vivo
Details: post-emerge, 250 g ai/ha, crop damage rating 0-100 at 14 days after application
Experimental: A standard greenhouse herbicide activity screening system was used to evaluate the herbicidal efficacy and crop safety of these test compounds. […] At 14 days after application of the test materials, phytotoxicity ratings were recorded. […]
Each record gets a class by Post-emerge Herbicidal Activity CORN: 1 = under 20, 2 = from 20 up to 60, 3 = 60 and over

- compound: "Cc1ccc(COC(=O)Nc2c(C)c(Cl)cc(F)c2-n2c(=O)cc(C(F)(F)F)n(C)c2=O)cc1 [4-60]"
  qualitative_label: 2
- compound: "COc1ccccc1COC(=O)Nc1c(C)c(Cl)cc(F)c1-n1c(=O)cc(C(F)(F)F)n(C)c1=O [4-58]"
  qualitative_label: 3
- compound: "O=C(Nc1cc(Cl)ccc1N1C(=O)C2=C(CCCC2)C1=O)c1ccc2ccccc2c1 [8-36]"
  qualitative_label: 1
- compound: "COc1cccc(COC(=O)Nc2c(C)c(Cl)cc(F)c2-n2c(=O)cc(C(F)(F)F)n(C)c2=O)c1 [4-65]"
  qualitative_label: 3
- compound: "COc1cccc(OC)c1OC(=O)Nc1c(C)c(Cl)cc(F)c1-n1c(=O)cc(C(F)(F)F)n(C)c1=O [4-59]"
  qualitative_label: 2
- compound: "Cc1nn(-c2c(F)cc(Cl)cc2NC(=O)c2ccc(F)cc2F)c(=O)n1C(F)F [Compound 6-23]"
  qualitative_label: 1
- compound: "COc1c(Cl)cc(F)c(-n2nnn(CCCF)c2=O)c1NC(=O)c1ccc2ccccc2c1 [Compound 5-26]"
  qualitative_label: 1
- compound: "CC(C)Oc1c(Cl)cc(F)c(N2C(=O)C3=C(CCCC3)C2=O)c1NC(=O)c1ccc(F)cc1F [8-18]"
  qualitative_label: 2
- compound: "C#CCOc1c(Cl)cc(F)c(N2C(=O)C3=C(CCCC3)C2=O)c1N [Compound 8-3]"
  qualitative_label: 1
- compound: "COc1c(Cl)cc(F)c(N2C(=O)C3=C(CCCC3)C2=O)c1N [8-7]"
  qualitative_label: 1
- compound: "COc1c(Cl)cc(F)c(-n2c(=O)n3n(c2=O)CCCC3)c1NC(=O)c1ccc(F)cc1F [9-16]"
  qualitative_label: 3
- compound: "Cc1c(Cl)cc(F)c(-n2c(=O)cc(C(F)(F)F)n(C)c2=O)c1NC(=O)OCc1cccc([N+](=O)[O-])c1 [4-67]"
  qualitative_label: 3
- compound: "Cc1c(Cl)cc(F)c(-n2c(=O)cc(C(F)(F)F)n(C)c2=O)c1NC(=O)OCc1ccc(Cl)cc1 [4-61]"
  qualitative_label: 3
- compound: "O=C(Nc1cc(Cl)ccc1N1C(=O)C2CCCCN2C1=O)c1ccc2ccccc2c1 (stereo not shown) [12-8]"
  qualitative_label: 1
- compound: "COc1c(Cl)cc(F)c(-n2nc(C)n(C(F)F)c2=O)c1NC(=O)c1ccc(F)cc1F [Compound 6-14]"
  qualitative_label: 3
- compound: "COc1c(Cl)cc(F)c(N2C(=O)C3=C(CCCC3)C2=O)c1NC(=O)C=Cc1ccccc1 [8-31]"
  qualitative_label: 1
- compound: "COc1c(Cl)cc(F)c(-n2ncc(C(F)(F)F)c(C)c2=O)c1NC(=O)c1ccc2ccccc2c1 [11-13]"
  qualitative_label: 2
- compound: "O=C(Nc1cc(Cl)ccc1-n1c(=O)n2n(c1=S)CCCC2)c1ccc2ccccc2c1 [9-14]"
  qualitative_label: 2
- compound: "Cc1cccc(COC(=O)Nc2c(C)c(Cl)cc(F)c2-n2c(=O)cc(C(F)(F)F)n(C)c2=O)c1 [4-68]"
  qualitative_label: 3
